# measured-on: hV1a receptor (Homo sapiens, UniProt P37288)
# Sequence (P37288 whole entry): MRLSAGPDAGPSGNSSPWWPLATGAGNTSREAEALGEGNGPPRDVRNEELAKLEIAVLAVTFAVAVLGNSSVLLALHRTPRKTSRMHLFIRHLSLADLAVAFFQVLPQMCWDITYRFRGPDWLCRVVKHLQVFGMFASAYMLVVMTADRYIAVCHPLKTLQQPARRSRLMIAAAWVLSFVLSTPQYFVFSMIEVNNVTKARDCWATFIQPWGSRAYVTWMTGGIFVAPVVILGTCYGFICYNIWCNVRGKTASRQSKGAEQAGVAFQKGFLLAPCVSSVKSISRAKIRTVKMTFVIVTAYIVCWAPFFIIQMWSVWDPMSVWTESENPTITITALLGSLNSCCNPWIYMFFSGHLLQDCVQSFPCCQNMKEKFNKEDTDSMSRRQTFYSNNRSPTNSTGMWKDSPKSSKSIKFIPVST
# assay-notes: hV1a receptor agonist transcriptional reporter (luciferase) assay in transiently transfected HEK-293 cells
# assay-setup: agonist activity; HEK-293 cells transiently transfected with hV1a receptor and calcium-responsive luciferase reporter; 5 hours exposure; geometric mean of at least three independent experiments; read-out: EC50 (median effective concentration)
Bridge positions count the residues as written; N and C are the ends. Square brackets hold non-standard residues; d marks the D form. Peptide text beside a SMILES is read from it. Ala(cPent) = N[C@@H](CC1CCCC1)C(=O)O; Cha = N[C@@H](CC1CCCCC1)C(=O)O; Orn = NCCC[C@H](N)C(=O)O; Dab = NCC[C@H](N)C(=O)O
measured-property: EC50 (nM)
Kindly answer with a numeric value in nM, unit omitted.

Recorded EC50, per entry:
{"molecule": "CC[C@H](C)[C@@H]1NC(=O)[C@H](CC2CCCC2)NC(=O)[C@@H](N)CSSC[C@@H](C(=O)N2CCC[C@H]2C(=O)N[C@@H](CCCN)C(=O)NCC(N)=O)NC(=O)[C@H](CC(N)=O)NC(=O)[C@H](CC(N)=O)NC1=O [Compound 7] (H-C[Ala(cPent)]INNCP[Orn]G-NH2; disulfide 1-6)", "EC50 (nM)": 7.7}
{"molecule": "CC[C@H](C)[C@@H]1NC(=O)[C@H](CC2CCCCC2)NC(=O)[C@@H](N)CSSC[C@@H](C(=O)N2CCC[C@H]2C(=O)N[C@@H](CCN)C(=O)NCC(N)=O)NC(=O)[C@H](CC(N)=O)NC(=O)[C@H](CC(N)=O)NC1=O [Compound 12] (H-C[Cha]INNCP[Dab]G-NH2; disulfide 1-6; N-terminus assumed)", "EC50 (nM)": 2.28}

Now, please, on to the next molecule.
Can you share its EC50? I mean this molecule: CC[C@H](C)[C@@H]1NC(=O)[C@H](CC2CCCCC2)NC(=O)[C@@H](N)CSSC[C@@H](C(=O)N2CCC[C@H]2C(=O)N[C@@H](CCCN)C(=O)NCC(N)=O)NC(=O)[C@H](CC(N)=O)NC(=O)[C@H](CC(N)=O)NC1=O [Compound 8] (H-C[Cha]INNCP[Orn]G-NH2; disulfide 1-6) 0.75

----------
Below, each entry is listed alongside its reported EC50.
# measured-on: hV1a receptor (Homo sapiens, UniProt P37288)
# assay-notes: hV1a receptor agonist transcriptional reporter (luciferase) assay in transiently transfected HEK-293 cells
# assay-setup: agonist activity; HEK-293 cells transiently transfected with hV1a receptor and calcium-responsive luciferase reporter; 5 hours exposure; geometric mean of at least three independent experiments; read-out: EC50 (median effective concentration)
Bridge positions count the residues as written; N and C are the ends. Square brackets hold non-standard residues; d marks the D form. Peptide text beside a SMILES is read from it. Orn(iPr) = CC(C)NCCC[C@H](N)C(=O)O; Cha = N[C@@H](CC1CCCCC1)C(=O)O; Orn = NCCC[C@H](N)C(=O)O; Dab = NCC[C@H](N)C(=O)O; Ac4c = NC1(C(=O)O)CCC1

{"compound": "CC[C@H](C)[C@@H]1NC(=O)[C@H](CC2CCCCC2)NC(=O)[C@@H](N)CSSC[C@@H](C(=O)N2CCC[C@H]2C(=O)N[C@@H](CCCNC(C)C)C(=O)NCC(N)=O)NC(=O)[C@H](CC(N)=O)NC(=O)[C@H](CC(N)=O)NC1=O [Compound 4, [Cha^2, Asn^4, Orn (i-Pr)^8]VT] (H-C[Cha]INNCP[Orn(iPr)]G-NH2; disulfide 1-6)", "EC50": "10.7 nM"}
{"compound": "CC[C@H](C)[C@@H]1NC(=O)C2(CCC2)NC(=O)[C@@H](N)CSSC[C@@H](C(=O)N2CCC[C@H]2C(=O)N[C@@H](CCCN)C(=O)NCC(N)=O)NC(=O)[C@H](CC(N)=O)NC(=O)[C@H](CC(N)=O)NC1=O [Compound 6] (H-C[Ac4c]INNCP[Orn]G-NH2; disulfide 1-6)", "EC50": "7.93 nM"}

Now, please, on to the next compound.
Can you share its EC50? I mean this compound: CC[C@H](C)[C@@H]1NC(=O)C2(CCC2)NC(=O)[C@@H](N)CSSC[C@@H](C(=O)N2CCC[C@H]2C(=O)N[C@@H](CCN)C(=O)NCC(N)=O)NC(=O)[C@H](CC(N)=O)NC(=O)[C@H](CC(N)=O)NC1=O [Compound 9] (H-C[Ac4c]INNCP[Dab]G-NH2; disulfide 1-6; N-terminus assumed) 14.8 nM
